Test system: MOLT-4
assay.name: NCI tumour cell line growth inhibition, 48 h
Counter-ions that a name gives are not always drawn. Activity calls are given as the source filed them. Cut-off read from the data, not from the text of the source: active = GI50 up to about 1.1 µM and inactive = higher.
Classes used: active, inactive

compound	category.label
O=C(O)/C(O)=C\C(=O)c1ccc(Br)cc1	inactive
O=[N+]([O-])/C(C(Cl)=C(Cl)Cl)=C(/Sc1ccccc1)N1CCCCC1	inactive
N#CC1(C=O)c2ccccc2C=CN1C(=O)c1ccccc1 (stereo not given)	inactive
COC1CCC(OS(C)(=O)=O)C(CO)O1 (stereo not given)	inactive
CC[C@]12CN3CCc4c([nH]c5ccccc45)[C@@](C(=O)OC)(c4cc5c(cc4OC)N(C)[C@H]4[C@@](O)(C(=O)OC)[C@H](OC(C)=O)[C@]6(CC)C=CCN7CC[C@]54[C@@H]76)CC(C3)[C@H]1O2 (stereo not given in full) [VINLEUROSINE SULFATE]	active
Cc1c(C)c2cc3c(=O)c(CCl)coc3c(C)c2oc1=O	inactive
COc1ccc([C@@H]2OC(=O)C3C2C(=O)O[C@H]3c2ccc(OC)cc2)cc1 (stereo not given in full)	inactive
O=CC1OC(=O)c2cc(O)c(O)c(O)c2-c2c(cc(O)c(O)c2O)C(=O)OC1C(O)C(O)CO (stereo not given)	inactive
O=C(N/N=C/c1ccc([N+](=O)[O-])cc1)Nc1ccc(Br)cc1	inactive
CC(C)NC(=O)OCCN=c1c2ccccc2ccc2ccccc12	inactive
O=C(N/N=C/c1ccc([N+](=O)[O-])cc1)Nc1ccc(C(=O)O)cc1	inactive
Cc1ccccc1NC(=O)/C(=N\NC(N)=S)C(C#N)c1ccccc1 (stereo not given)	inactive
O=c1oc2cc(O)ccc2cc1-c1nc2ccccc2o1	inactive
Cc1cnoc1/N=C1\C=C(O)C(=O)c2ccccc21	inactive
O=C(CSc1nnc(Cc2ccccc2)o1)Nc1cccc([N+](=O)[O-])c1	inactive
COc1ccc(C2=Cc3nc2c(-c2ccccc2)c2ccc([nH]2)c(-c2ccccc2)c2nc(c(-c4ccccc4)c4ccc([nH]4)c3-c3ccccc3)C=C2)cc1	inactive
Oc1c2c(nc3cc4c(cc13)OCO4)-c1ccccc1CCC2	inactive
COc1cccc(CC(=O)N2CCN(CCCc3ccccc3)CC2)c1	inactive
Cc1cccc(C)c1NC(=O)CCC(=O)CC(=O)C(C)C	inactive
CN1CC[C@@]2(c3cccc(O)c3)CC(=O)/C(=C/c3ccccc3)[C@H]1C2.[O-][Cl+3]([O-])([O-])O	inactive

###

GI50 by entry:
Tested on: T47D
assay.name: NCI tumour cell line growth inhibition, 48 h
The source made the active and inactive calls. Rule as the data show it: active = GI50 up to about 1.1 µM and inactive = higher.

compound	GI50
CCC(=O)NC(Nc1ccc(O)cc1)(C(F)(F)F)C(F)(F)F	49.4 µM (inactive)
O=C1OC(c2ccccc2)=N/C1=C\c1cccc(F)c1	> 100 µM (inactive)
Cc1cccc2c1[nH]c1[nH]c(=O)[nH]c(=O)c12	> 100 µM (inactive)
c1ccc2sc(SCSc3nc4ccccc4s3)nc2c1	> 100 µM (inactive)
O=C1CC(Br)c2c(Br)sc(Br)c21 (stereo unspecified)	17.6 µM (inactive)
Nc1nc(Cl)cc(NCC2(CO)CCC(CCc3ccccc3)C2)n1 (stereo unspecified)	0.877 µM (active)

###

Test system: SNB-75
assay.name: NCI tumour cell line growth inhibition, 48 h
Calls of active or inactive are those of the source. Rule as the data show it: active = GI50 up to about 1.1 µM and inactive = higher.
Possible outcomes: 1 for active, -1 for inactive

compound	category.label
CN(CCN)[C@H](CSSC[C@@H](c1ccccc1O)N(C)CCN)c1ccccc1O	-1
Cn1c(C(C#N)c2cc(Cl)ncn2)nc2ccccc21 (stereo not drawn)	-1
Cc1ccccc1NC(=O)/C=N/O	-1
CC(=O)O[C@H]1CC[C@@]2(C)C(=CC[C@H]3[C@@H]4C[C@H](N5CCCC5)[C@H](OC(C)=O)[C@@]4(C)CC[C@@H]32)C1	-1
CCN1C(=O)CS/C1=N\NC(=O)CSc1nc2ccccc2c(=O)n1CC	-1
O=C1Sc2ccccc2NC1=C(C(=O)c1ccccc1)C(=O)c1ccccc1	-1
Nn1c(SCC(=O)NCc2ccccc2)nc2ccccc2c1=O	-1
CC(=O)OC1[C@H](n2ccnc2)C[C@H]2[C@@H]3CC=C4CC(N5CCCC5)CC[C@]4(C)[C@H]3CC[C@]12C (stereo partly drawn)	-1
CCCC(=O)OCC1OC(n2cc(F)c(=O)[nH]c2=O)CC1O (stereo not drawn)	1
O=C[C@@H](CO)O[C@H](C=O)n1cnc2c(=O)nc[nH]c21	-1
Cc1ccc(C2SCc3nc4ccccc4n32)cc1 (stereo not drawn)	1
O=C(O)C1(Cc2ccc3c(c2)CCC3)Cc2ccccc2C1	-1
CC1=CC(C)C(C)N(CCNS(=O)(=O)c2ccc(C)cc2)c2ccccc21 (stereo not drawn)	-1
CC(=O)c1sc2c(c1OC(=O)c1ccc(Cl)cc1)c(=O)n(-c1ccccc1)c(=S)n2-c1ccccc1	-1
CC1=CSC(O)(c2ccc(Cl)cc2)c2noc(=O)n21 (stereo not drawn)	-1
COc1ccc(C(=O)Nc2ccc(S(=O)(=O)NCC(=O)O)cc2)cc1	-1
CC(C)(C)OC(=O)N1CCCC1=O	-1
C/C(=C\CNc1ncnc2c1ncn2CCC#N)CO	-1
COc1ccc(CCCNC(=O)c2cc(OC)c(OC)cc2CCO)cc1OC	-1
c1csc(-c2nccc3c2[nH]c2ccccc23)c1	-1
CCCC[C@@H](C)/C=C1\CN2CCC[C@H]2[C@@](C)(OCc2ccccc2)[C@@H]1O	-1
O=C1C(Br)=CC2(C=C1Br)CCNC1=C2C(=O)c2cccnc2C1=O	-1
COc1cc(OC)c(C(=O)c2cccs2)cc1N	-1

###

Reported GI50 values follow for various compounds
Test system: OVCAR-5
assay.name: NCI tumour cell line growth inhibition, 48 h
The source made the active and inactive calls. No stated cut-off is given here; in the data, active = GI50 up to about 1.1 µM and inactive = higher.
parameter.measured: GI50

compound	parameter.measured	result
CC(C)c1cccc(C(C)C)c1NC(=S)Nc1ccccc1	GI50	> 100 µM (inactive)
COc1cc(C2SC(=N)Nc3c2c(C)nn3C(=O)c2ccc(Cl)cc2)cc(OC)c1OC (centres undefined)	GI50	> 10 µM (inactive)
NS(=O)(=O)c1ccc(CNC(=S)NC(=O)Nc2ccc(Cl)c(Cl)c2)cc1	GI50	29 µM (inactive)
NC(=O)C(=O)N/N=C1\C(=O)N(c2ccc(Cl)cc2Cl)C(=O)C1C(=O)Nc1ccc(Cl)cc1Cl (centres undefined)	GI50	> 100 µM (inactive)
Nc1ncnc2c1ncn2C1OC(CO)=CC1O (centres undefined)	GI50	> 37.5 µM (inactive)
N#CC(c1ccccc1)N(CCOCCOCCN(C(=O)c1ccccc1)C(C#N)c1ccccc1)C(=O)c1ccccc1 (centres undefined)	GI50	> 100 µM (inactive)
C=CCN(C(C)=O)c1cc(OCc2ccccc2)c2c(c1)c(C)cn2S(=O)(=O)c1ccccc1	GI50	11.8 µM (inactive)
Cc1ccc(/C=C2\CNC/C(=C\c3ccc(C)cc3)C2=O)cc1	GI50	3.87 µM (inactive)
Cc1cc(C)c2c(n1)S(=O)(=O)N(CCCN1CCN(c3cccc(Cl)c3)CC1)C(C(=O)c1ccccc1)=C2O	GI50	45 µM (inactive)

###

Test system: A498
assay.name: NCI tumour cell line growth inhibition, 48 h
The source made the active and inactive calls. No stated cut-off is given here; in the data, active = GI50 up to about 1.1 µM and inactive = higher.
Outcome codes: T for active, F for inactive

compound	category.label
C=C(C)C1CC=C(C)C2(C1)OCC(C)(C)C(C)O2 (stereo unspecified)	F
Cn1c(=O)c2nc(COCc3nc4c(=O)n(C)c(=O)n(C)c4[nH]3)[nH]c2n(C)c1=O	F
CC1=CC(C)C(C)N(CCNS(=O)(=O)c2ccc(C)cc2)c2ccccc21 (stereo unspecified)	F
O=c1oc2cc(O)ccc2cc1-c1nc2ccccc2o1	F
N#CC1=C(N)OC2=C(CSc3ccccc32)C1c1ccc(Br)cc1 (stereo unspecified)	F
CCOc1cccc2sc(N)nc12	F
COc1ccc(OC)c(C23CCCC(C2)N(C)CC3)c1 (stereo unspecified)	F
CCc1c(Cc2cc(C)cc(C)c2)n2c(nc1=O)SCC2CBr (stereo unspecified)	F
CC(=O)OCC1OC(N2C(=O)C(=O)c3ccccc32)C(OC(C)=O)C(OC(C)=O)C1OC(C)=O (stereo unspecified)	F
O=C1Nc2ccc(Br)cc2C1=Nc1cccnc1	F
Cc1ccc(N/C(Sc2ccccc2)=C(/C(Cl)=C(Cl)Cl)[N+](=O)[O-])c(C)c1	F
Nc1nc(Cl)cc(/N=N\c2ccccc2)n1	F
CCOC(=O)N/N=C(\CC)NO	F
CCN(CC)/[N+]([O-])=N/OCOC	F
Cc1c(C)n(-c2ccccc2)c2nc(S(C)(=O)=O)nc(S(C)(=O)=O)c12	F
COc1cccc(N[C@@H]2c3cc4c(cc3C(c3cc(OC)c(O)c(OC)c3)[C@H]3C(=O)OCC32)OCO4)c1 (stereo partly specified)	T
CN(CCN)[C@H](CSSC[C@@H](c1ccccc1O)N(C)CCN)c1ccccc1O	F
c1ccc(-c2cc3[nH]c4ccccc4[nH]c-3cc(-c3ccccc3)nn2)cc1	F
COC(=O)c1c(OC(C)=O)ccc2c1c1c(n2C)C(=O)c2ccccc2C1=O	F
O=C1c2ccccc2C(=O)N1Cc1ccccc1-c1c2nc(c(-c3ccccc3CN3C(=O)c4ccccc4C3=O)c3ccc([nH]3)c(-c3ccccc3CN3C(=O)c4ccccc4C3=O)c3nc(c(-c4ccccc4CN4C(=O)c5ccccc5C4=O)c4ccc1[nH]4)C=C3)C=C2	F
CC(C)c1cccc(C(C)C)c1NC(=S)Nc1ccccc1	F
